Cited source: patent US20250382363A1

# No of serum samples >30% inhibition (30% CCP) without SCP (serum samples) annotations
System tested: pre-existing anti-drug antibodies (ADA) present in human sera
Protocol: pre-existing ADA ELISA, scFv coated, human sera unspiked vs spiked
A bare number is all that is needed in reply.

Task: I am curious: what No of serum samples >30% inhibition (30% CCP) without SCP (serum samples) value has been reported for PRO2988 (scFv 37-20-B03-sc09.1_(P48A)) (scFv, PRO2230 variant; VH substitution, AHo numbering; also called PRO2230 P48A) scFv: DIQMTQSPASLSASVGDRVTITCQASQSIGTYLAWYQQKPGKPPKLLIYRAFILASGVPSRFSGSGSGTDFTLTISSLQPEDFATYYCQSNFYSDSTTIGPNAFGTGTKVTVLGGGGGSGGGGSGGGGSGGGGSEVQLVESGGGLVQPGGSLRLSCAASGFSFNSDYWIYWVRQAAGKGLEWIASIYGGSSGNTQYASWAQGRFTISRDNSKNTVYLQMNSLRAEDTAVYFCARGYVDYGGATDLWGQGTLVTVSS ?
Result: 7

Task: Ok, now PRO3314 (scFv 37-20-B03-sc09.1_(T101Q, T146Q)) (scFv, PRO2230 variant; VH substitutions, AHo numbering; also called PRO2230 T101Q-T146Q) scFv: DIQMTQSPASLSASVGDRVTITCQASQSIGTYLAWYQQKPGKPPKLLIYRAFILASGVPSRFSGSGSGTDFTLTISSLQPEDFATYYCQSNFYSDSTTIGPNAFGTGTKVTVLGGGGGSGGGGSGGGGSGGGGSEVQLVESGGGLVQPGGSLRLSCAASGFSFNSDYWIYWVRQAPGKGLEWIASIYGGSSGNTQYASWAQGRFTISRDNSKNTVYLQMNSLRAEDQAVYFCARGYVDYGGATDLWGQGTLVQVSS
Result: 4

Task: Ok, now PRO3308 (scFv 37-20-B03-sc09.1_(L12A, T101S, L144K, T146Q)) (scFv, PRO2230 variant; VH substitutions, AHo numbering; also called PRO2230 L12A-T101S-L144K-T146Q) scFv: DIQMTQSPASLSASVGDRVTITCQASQSIGTYLAWYQQKPGKPPKLLIYRAFILASGVPSRFSGSGSGTDFTLTISSLQPEDFATYYCQSNFYSDSTTIGPNAFGTGTKVTVLGGGGGSGGGGSGGGGSGGGGSEVQLVESGGGAVQPGGSLRLSCAASGFSFNSDYWIYWVRQAPGKGLEWIASIYGGSSGNTQYASWAQGRFTISRDNSKNTVYLQMNSLRAEDSAVYFCARGYVDYGGATDLWGQGTKVQVSS
Result: 7
